experimental-system: 5-lipoxygenase (Cavia porcellus, UniProt A0A286X958)
Construct: The supernate was used as an enzyme throughout this work; from tissue; host or cells: 105,000 x g supernatant of sonicated, casein-elicited guinea pig polymorphonuclear leukocytes
Sequence (A0A286X958 1-674): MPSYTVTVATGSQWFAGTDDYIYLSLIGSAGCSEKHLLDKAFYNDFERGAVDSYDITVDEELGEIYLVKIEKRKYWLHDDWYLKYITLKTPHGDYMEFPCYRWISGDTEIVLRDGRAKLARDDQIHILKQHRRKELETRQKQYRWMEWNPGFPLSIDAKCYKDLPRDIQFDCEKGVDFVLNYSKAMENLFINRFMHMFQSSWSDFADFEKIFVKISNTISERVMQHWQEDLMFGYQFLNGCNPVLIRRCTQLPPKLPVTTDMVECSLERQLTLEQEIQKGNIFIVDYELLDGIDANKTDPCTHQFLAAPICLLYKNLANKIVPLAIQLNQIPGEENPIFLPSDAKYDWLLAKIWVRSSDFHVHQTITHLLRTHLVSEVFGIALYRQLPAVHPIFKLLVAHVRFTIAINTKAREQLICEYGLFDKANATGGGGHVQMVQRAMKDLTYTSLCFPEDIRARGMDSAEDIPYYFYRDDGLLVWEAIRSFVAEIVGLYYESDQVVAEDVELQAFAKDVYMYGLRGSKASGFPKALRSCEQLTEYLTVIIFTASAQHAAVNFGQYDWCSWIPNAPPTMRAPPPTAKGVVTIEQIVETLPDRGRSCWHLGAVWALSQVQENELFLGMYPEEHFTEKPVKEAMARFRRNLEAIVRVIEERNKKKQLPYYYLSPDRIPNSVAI
assay-name: assay system evaluating only the inhibitory activity on 5-lipoxygenase (105,000 x g supernate of sonicated polymorphonuclear leukocytes)
Type: biochemical
measurement-context: supernate of sonicated guinea pig polymorphonuclear leukocytes, 30°C, 5 minutes, 1 mM calcium chloride; production of 5-HETE, 5,12-diHETE and leukotriene B; read-out: concentrations required to produce 50% inhibitions on 5-lipoxygenase
Counter-ions that a name gives are not always drawn.
Definition: the class of an entry is the range in bucket A (below 0.3 µM), bucket B (0.3 µM to below 0.7 µM), bucket C (0.7 µM or more) that contains its IC50.

1. Nc1cc(NC(=O)c2ccccc2)ccc1O [hydrochloride] ... bucket C
2. Nc1cc(Sc2ccc(O)c(N)c2)ccc1O ... bucket C
3. Cl.Nc1cc(-c2nc3ccccc3s2)ccc1O [hydrochloride] ... bucket A
4. Nc1cc([S+]([O-])c2ccccc2)ccc1O (centres unmarked) ... bucket C
5. Nc1cc(Sc2ccccc2)ccc1O [2-amino-4-phenylthiophenol hydrochloride, 2-Amino-4-phenylthiophenol hydrochloride] ... bucket B
6. Cc1cc(C)c(Sc2ccc(O)c(N)c2)c(C)c1 [hydrochloride] ... bucket B
7. Cc1ccc(Sc2ccc(O)c(N)c2)cc1.Cl [hydrochloride] ... bucket A
8. Nc1cc(Sc2ccc(O)cc2)ccc1O [2-amino-4-(4-hydroxyphenylthio)phenol, 2-Amino-4-(4-hydroxyphenylthio)phenol] ... bucket B
9. CC(C)(C)c1ccc(Sc2ccc(O)c(N)c2)cc1 [hydrochloride] ... bucket B
